# target or system: TF (Innovin) (UniProt P13726 33-295, limits assumed)
# test description: cell-based or functional assay
Reported values of IC50, inhibition of blood coagulation (TF induced clotting time) for individual entries
Answer shape: numeric part, then the unit.

Sample records with IC50, inhibition of blood coagulation (TF induced clotting time):
anti-TF HuMab 003 (antibody, V domains shown, Human monoclonal antibody from HuMab mice; also called HuMab-TF-003) VH: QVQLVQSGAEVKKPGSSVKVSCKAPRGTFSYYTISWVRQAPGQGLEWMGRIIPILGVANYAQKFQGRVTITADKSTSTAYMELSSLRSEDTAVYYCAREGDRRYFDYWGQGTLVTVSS VL: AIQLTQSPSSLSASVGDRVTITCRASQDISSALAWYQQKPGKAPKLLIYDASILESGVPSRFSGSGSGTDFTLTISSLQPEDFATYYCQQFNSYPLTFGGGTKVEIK: 7.3 nM
anti-TF HuMab 109 (antibody, V domains shown, Human monoclonal antibody from HuMab mice) VH: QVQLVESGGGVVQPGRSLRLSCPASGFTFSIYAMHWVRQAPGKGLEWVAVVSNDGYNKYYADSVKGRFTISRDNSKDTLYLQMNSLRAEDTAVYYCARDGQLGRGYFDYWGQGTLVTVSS VL: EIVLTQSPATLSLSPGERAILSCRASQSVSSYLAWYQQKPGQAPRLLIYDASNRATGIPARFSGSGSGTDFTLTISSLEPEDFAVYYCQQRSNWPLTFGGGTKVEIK: 7.6 nM

Field: next binder
Kindly note the recorded IC50, inhibition of blood coagulation (TF induced clotting time) for anti-TF HuMab 092-A09 (antibody, V domains shown, Human monoclonal antibody from HuMab mice) VH: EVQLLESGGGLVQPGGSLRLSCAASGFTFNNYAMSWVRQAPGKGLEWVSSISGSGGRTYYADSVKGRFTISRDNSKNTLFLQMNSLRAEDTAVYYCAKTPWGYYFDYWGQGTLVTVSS VL: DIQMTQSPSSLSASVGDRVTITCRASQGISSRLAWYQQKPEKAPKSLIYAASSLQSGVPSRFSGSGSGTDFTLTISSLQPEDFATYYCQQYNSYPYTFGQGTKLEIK , which is 0.2 nM

Data provenance: patent US20110300156A1
